Target: dCK in CCRF-CEM cells (Homo sapiens)
Assay: cell-based
Details: IC50 (nM), Table 3; inhibition of 3H-deoxycytidine (dCyd) uptake in CEM cells; mean ± SD of n ≥ 2 unless (n = 1)
Can you tell me log10 of IC50 for the items I'm about to list?
Please note: log10 values; quantity IC50; unit nM.

Worked set:
>  <Compound>
COCCOCCOCCOc1ccc(-c2nc(C(C)Sc3nc(N)cc(N)n3)c(C)s2)cc1OC (centres unmarked) [Compound S24]

>  <log10 of IC50>
0.79

$$$$
>  <Compound>
COc1ccc(-c2cc(CSc3nc(N)cc(N)n3)c(C)o2)cc1OCCF [Compound S12]

>  <log10 of IC50>
4.13

$$$$
>  <Compound>
CCCc1sc(-c2ccc(F)c(OCCCF)c2)nc1CSc1nc(N)cc(N)n1 [Compound S5]

>  <log10 of IC50>
1.50

$$$$

// each compound listed below needs its log10 of IC50
1. COCCOCCOCCOc1cc(-c2nc(CSc3nc(N)cc(N)n3)c(C)s2)ccc1OC [Compound S26]
2. COCCOCCOCCOc1cc(-c2nc(C(C)Sc3nc(N)cc(N)n3)c(-c3ccccc3)s2)ccc1OC (centres unmarked) [Compound S28]
3. COCCOCCOCCOc1cc(-c2nc(C(C)Sc3nc(N)cc(N)n3)c(C3CC3)s2)ccc1OC (centres unmarked) [Compound S27]
4. CCCc1sc(-c2ccc(OC)c(OCCCF)c2)nc1CSc1nc(N)cc(N)n1 [Compound S3]
5. COCCOCCOCCOc1cc(-c2nc(CSc3nc(N)cc(N)n3)c(C3CC3)s2)ccc1OC [Compound S25]

*A*
1. 0.96
2. 2.00
3. 0.57
4. 0.40
5. 1.36

----------
Target: dCK in CCRF-CEM cells (Homo sapiens, UniProt P27707)
Sequence (P27707 whole entry): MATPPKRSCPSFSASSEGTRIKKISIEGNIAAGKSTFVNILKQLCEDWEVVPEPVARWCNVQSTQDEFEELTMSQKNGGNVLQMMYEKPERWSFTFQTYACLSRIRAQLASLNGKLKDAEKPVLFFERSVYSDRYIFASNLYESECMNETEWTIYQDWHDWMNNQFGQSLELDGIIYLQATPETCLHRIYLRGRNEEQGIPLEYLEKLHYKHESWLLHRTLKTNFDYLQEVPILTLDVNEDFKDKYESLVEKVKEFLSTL
Experiment: cell-based
Conditions: IC50, Example 4 list; assay and unit inferred; values correspond to the CEM 3H-dC uptake data of Tables 3 and 7
Can you tell me IC50 for the items I'm about to list?
Numbers only, in µM.

// each compound listed below needs its IC50
1. [2H]C([2H])(Sc1nc(N)cc(N)n1)c1nc(-c2ccnc(OCCF)c2)sc1CCC
2. CCCc1sc(-c2ccc(F)c(OCCCF)c2)nc1CSc1nc(N)cc(N)n1
3. CCCc1sc(-c2ccc(OCCOCCOCCOC)c(OCC)c2)nc1CSc1nc(N)cc(N)n1
4. COc1cc(-c2cc(CSc3nc(N)cc(N)n3)sc2C)ccc1OCCF

*A*
0.03
0.0317
0.00237
1.58

// each compound listed below needs its IC50
1. CCCc1sc(-c2ccc(F)c(OCCF)c2)nc1CSc1nc(N)cc(N)n1
2. COCCOCCOCCOc1cc(-c2nc(CSc3nc(N)cc(N)n3)c(C(Sc3nc(N)cc(N)n3)c3ccccc3)s2)ccc1OC (stereo not shown)

*A*
1: 0.0234; 2: 1.66

// each compound listed below needs its IC50
1. COc1ccc(-c2cc(CSc3nc(N)cc(N)n3)c(C)o2)cc1OCCF
2. CCCc1sc(-c2ccc(N(CCNS(C)(=O)=O)S(C)(=O)=O)c(OCCNS(C)(=O)=O)c2)nc1CSc1nc(N)cc(N)n1
3. CCCc1sc(-c2ccnc(OCCNS(C)(=O)=O)c2)nc1CSc1nc(N)cc(N)n1
4. CCCc1sc(-c2cc(F)cc(OCCOCCOCCF)c2)nc1CSc1nc(N)cc(N)n1
5. CCCc1sc(-c2ccnc(OCCF)c2)nc1CSc1nc(N)cc(N)n1
6. CCCc1sc(-c2ccc(OC)c(OCCOCCOCCOC)c2)nc1CSc1nc(N)cc(N)n1
7. CCCc1sc(-c2ccc(OC)c(OCCOCCOCCO)c2)nc1CSc1nc(N)cc(N)n1

*A*
1: 13.8; 2: 1.2; 3: 1.18; 4: 0.0337; 5: 0.00684; 6: 0.00331; 7: 0.00106

----------
Target: dCK in CCRF-CEM cells (Homo sapiens)
Experiment: cell-based
Conditions: IC50, Example 5 list; assay and unit inferred; values correspond to the CEM data of Table 3
Measured attribute: IC50 (nM)
Give bare numbers, in nM.

Worked set:
>  <Compound>
COCCOCCOCCOc1ccc(-c2nc(C(C)Sc3nc(N)cc(N)n3)c(C)s2)cc1OC (stereo not shown)

>  <IC50 [nM]>
6.12

$$$$
>  <Compound>
COCCOCCOCCOc1cc(-c2nc(C(C)Sc3nc(N)cc(N)n3)c(C3CC3)s2)ccc1OC (stereo not shown)

>  <IC50 [nM]>
2.47

$$$$
>  <Compound>
CCCc1sc(-c2ccc(OC)c(OCCOCCOCCOC)c2)nc1C(C)Sc1nc(N)cc(N)n1 (stereo not shown)

>  <IC50 [nM]>
6.01

$$$$

Attention now shifts to the item below.
*Q* Entry COCCOCCOCCOc1cc(-c2nc(C(C)Sc3nc(N)cc(N)n3)c(C)s2)ccc1OC (stereo not shown) has what IC50?
*A* 8.03

----------
Can you tell me IC50 for the items I'm about to list?
Molecular target: dCK in CCRF-CEM cells (Homo sapiens)
Assay: cell-based
Details: IC50 (nM), Table 3; inhibition of 3H-deoxycytidine (dCyd) uptake in CEM cells; mean ± SD of n ≥ 2 unless (n = 1)
Numbers only, in nM.

Worked set:
>  <Compound>
CCCc1sc(-c2ccc(OCCOCCOCCOC)c(OCC)c2)nc1CSc1nc(N)cc(N)n1

>  <IC50 [nM]>
2.37

$$$$
>  <Compound>
CCCc1sc(-c2ccc(OC)c(OCCOCCOCCSc3nc(N)cc(N)n3)c2)nc1CSc1nc(N)cc(N)n1

>  <IC50 [nM]>
4.7

$$$$
>  <Compound>
CCCc1sc(-c2cc(F)cc(OCCOCCOCCF)c2)nc1CSc1nc(N)cc(N)n1

>  <IC50 [nM]>
33.7

$$$$
>  <Compound>
CCCc1sc(-c2cccc(OCCOCCOCCF)c2)nc1CSc1nc(N)cc(N)n1

>  <IC50 [nM]>
69.1

$$$$
>  <Compound>
CCCc1sc(-c2ccc(OC)c(OCCOCCOCCO)c2)nc1CSc1nc(N)cc(N)n1

>  <IC50 [nM]>
1.06

$$$$

// each compound listed below needs its IC50
1. COc1cc(-c2cc(CSc3nc(N)cc(N)n3)c(C)s2)ccc1OCCF
2. CCCc1sc(-c2ccc(OCCF)c(OCC)c2)nc1CSc1nc(N)cc(N)n1
3. CCCc1sc(-c2ccc(OC)c(OCCOCCOCCOC)c2)nc1CSc1nc(N)cc(N)n1
4. Cc1sc(-c2cc(F)cc(OCCNS(C)(=O)=O)c2)nc1C(C)Sc1nc(N)cc(N)n1 (stereo not drawn)
5. CCCc1sc(-c2ccc(OC)c(OCCOCCOCCOC)c2)nc1C(C)Sc1nc(N)cc(N)n1 (stereo not drawn)

*A*
[262, 2.8, 3.31, 9.07, 6]

// each compound listed below needs its IC50
1. COc1cc(-c2cc(CSc3nc(N)cc(N)n3)c(C)o2)ccc1OCCF
2. CCCc1sc(-c2ccnc(OCCF)c2)nc1CSc1nc(N)cc(N)n1
3. CCCc1sc(-c2ccc(F)c(OCCF)c2)nc1CSc1nc(N)cc(N)n1
4. CCCc1sc(-c2ccc(OC)c(OCCF)c2)nc1CCc1nc(N)cc(N)n1

*A*
1: 276; 2: 6.8; 3: 23.3; 4: 664

// each compound listed below needs its IC50
1. CCCc1sc(-c2ccc(N(CCNS(C)(=O)=O)S(C)(=O)=O)c(OCCNS(C)(=O)=O)c2)nc1CSc1nc(N)cc(N)n1
2. CCCc1sc(-c2ccc(OC)c(OCCOCCOCCF)c2)nc1CSc1nc(N)cc(N)n1
3. [2H]C([2H])(Sc1nc(N)cc(N)n1)c1nc(-c2ccnc(OCCF)c2)sc1CCC
4. COCCOCCOCCOc1cc(-c2nc(C(C)Sc3nc(N)cc(N)n3)c(C)s2)ccc1OC (stereo not drawn)

*A*
1200
4.22
30
8.03

----------
Target: dCK in CCRF-CEM cells (Homo sapiens, UniProt P27707)
Test: cell-based
Conditions: IC50, Example 4 list; assay and unit inferred; values correspond to the CEM 3H-dC uptake data of Tables 3 and 7
Returns: string. Value is Criterion met if measured IC50 is below 4 nM, and Criterion not met if it is greater than or equal to it.

Example cases with answers are listed next.
>  <Molecule>
CCCc1sc(-c2ccc(OC)c(OCCCF)c2)nc1CSc1nc(N)cc(N)n1 [Compound S3]

>  <Class label>
Criterion met

$$$$
>  <Molecule>
COc1cc(-c2cc(CSc3nc(N)cc(N)n3)c(C)o2)ccc1OCCF [Compound S14]

>  <Class label>
Criterion not met

$$$$
>  <Molecule>
CCCc1sc(-c2ccc(OC)c(OCCOCCOCCF)c2)nc1CSc1nc(N)cc(N)n1 [Compound S16]

>  <Class label>
Criterion not met

$$$$
>  <Molecule>
CCCc1sc(-c2ccc(OC)c(OCCF)c2)nc1CCc1nc(N)cc(N)n1 [Compound S15]

>  <Class label>
Criterion not met

$$$$
>  <Molecule>
CCCc1sc(-c2cccc(OCCOCCOCCF)c2)nc1CSc1nc(N)cc(N)n1 [Compound S17]

>  <Class label>
Criterion not met

$$$$

*Q* Hello, is IC50 of the following molecule strictly smaller than 4 nM? COc1cc(-c2cc(CSc3nc(N)cc(N)n3)c(C)s2)ccc1OCCF [Compound S18]
*A* Criterion not met

*Q* And COCCOCCOCCOc1cc(-c2nc(CSc3nc(N)cc(N)n3)c(C)s2)ccc1OC [Compound S26] ?
*A* Criterion not met

*Q* And CCCc1sc(-c2ccc(OCCF)c(OCC)c2)nc1CSc1nc(N)cc(N)n1 [Compound S4] ?
*A* Criterion met

src = patent US9981961B2
